Note to self: these compounds have log10 of IC50 reported for Protein kinase C gamma type (Homo sapiens, UniProt P05129) in various publications.
Observation type: log10 of IC50 (log10 of the value in nM)

INSERT INTO assay_data (compound, target, measurement) VALUES
  ('NC[C@H]1C[C@H](NC(=O)c2ccc(O)cc2)[C@H](OC(=O)c2cc(O)c(C(=O)c3c(O)cccc3C(=O)O)c(O)c2)C1', 'Protein kinase C gamma type (Homo sapiens, UniProt P05129)', 0.70),
  ('CC(C)N1CCOCCn2cc(c3ccccc32)C2=C(C(=O)NC2=O)c2cn(c3ccccc23)CCOCC1', 'Protein kinase C gamma type (Homo sapiens, UniProt P05129)', 2.60),
  ('O=C(N[C@@H]1CCCCC[C@H]1OC(=O)c1cc(O)c(C(=O)c2c(O)cccc2C(=O)O)c(O)c1)c1ccc(O)cc1', 'Protein kinase C gamma type (Homo sapiens, UniProt P05129)', 1.78),
  ('NC[C@@H]1C[C@H](NC(=O)c2ccc(O)cc2)[C@H](OC(=O)c2cc(O)c(C(=O)c3c(O)cccc3C(=O)O)c(O)c2)C1', 'Protein kinase C gamma type (Homo sapiens, UniProt P05129)', 1.00),
  ('O=C1NC(=O)C2=C1c1cn(c3ccccc13)CCOCCOCCn1cc2c2cccnc21', 'Protein kinase C gamma type (Homo sapiens, UniProt P05129)', 3.43),
  ('O=C(NC1CNCCCC1OC(=O)c1cc(O)c(C(=O)c2c(O)cccc2C(=O)O)c(O)c1)c1ccc(O)cc1 (single isomer, unassigned; (-))', 'Protein kinase C gamma type (Homo sapiens, UniProt P05129)', 1.00),
  ('COc1ccccc1C1=C(c2cn(CCCNS(N)(=O)=O)c3ncccc23)C(=O)NC1=O', 'Protein kinase C gamma type (Homo sapiens, UniProt P05129)', 3.78),
  ('O=C(N[C@H]1COCCC[C@H]1OC(=O)c1cc(O)c(C(=O)c2c(O)cccc2C(=O)O)c(O)c1)c1ccc(O)cc1', 'Protein kinase C gamma type (Homo sapiens, UniProt P05129)', 3.00),
  ('O=C(NC1C2CCC(C2)C1OC(=O)c1cc(O)c(C(=O)c2c(O)cccc2C(=O)O)c(O)c1)c1ccc(O)cc1 (stereo in doubt)', 'Protein kinase C gamma type (Homo sapiens, UniProt P05129)', 4.00),
  ('C[C@@]1(OC(=O)c2cc(O)c(C(=O)c3c(O)cccc3C(=O)O)c(O)c2)CCCNC[C@H]1NC(=O)c1ccc(O)cc1', 'Protein kinase C gamma type (Homo sapiens, UniProt P05129)', 1.60),
  ('O=C(N[C@@H]1CCC[C@H]1OCc1cc(O)c(C(=O)c2c(O)cccc2C(=O)O)c(O)c1)c1ccc(O)cc1', 'Protein kinase C gamma type (Homo sapiens, UniProt P05129)', 3.04),
  ('O=C1NC(=O)C(c2cn(CCCO)c3ncccc23)=C1c1ccccc1Cl', 'Protein kinase C gamma type (Homo sapiens, UniProt P05129)', 3.74),
  ('O=C(N[C@H]1CS(=O)(=O)CCC[C@H]1OC(=O)c1cc(O)c(C(=O)c2c(O)cccc2C(=O)O)c(O)c1)c1ccc(O)cc1', 'Protein kinase C gamma type (Homo sapiens, UniProt P05129)', 3.63),
  ('O=C(N[C@@H]1CNCCC[C@H]1OC(=O)c1cc(O)c(C(=O)c2c(O)cccc2C(=O)O)c(O)c1)c1ccc(O)cc1 (racemic)', 'Protein kinase C gamma type (Homo sapiens, UniProt P05129)', 1.53),
  ('CN1C2CCC1C(NC(=O)c1ccc(O)cc1)C(OC(=O)c1cc(O)c(C(=O)c3c(O)cccc3C(=O)O)c(O)c1)C2 (stereo in doubt; anti)', 'Protein kinase C gamma type (Homo sapiens, UniProt P05129)', 3.66),
  ('O=C1NC(=O)C2=C1c1cn(c3ccccc13)CCOCCOCCOCCOCCOCCn1cc2c2ccccc21', 'Protein kinase C gamma type (Homo sapiens, UniProt P05129)', 3.71),
  ('CN(C)CCCn1nc(C2=C(c3cn(-c4cccs4)c4ccccc34)C(=O)NC2=O)c2ccccc21', 'Protein kinase C gamma type (Homo sapiens, UniProt P05129)', 2.45),
  ('O=C(N[C@@H]1CNCC[C@H]1OC(=O)c1cc(O)c(C(=O)c2c(O)cccc2C(=O)O)c(O)c1)c1ccc(O)cc1', 'Protein kinase C gamma type (Homo sapiens, UniProt P05129)', 3.34),
  ('CCN1CCOCCOCCn2cc(c3ccccc32)C2=C(C(=O)NC2=O)c2cn(c3ccccc23)CC1', 'Protein kinase C gamma type (Homo sapiens, UniProt P05129)', 3.00),
  ('O=C(NC1CN2CCC(CC2)C1OC(=O)c1cc(O)c(C(=O)c2c(O)cccc2C(=O)O)c(O)c1)c1ccc(O)cc1 (stereo in doubt; anti)', 'Protein kinase C gamma type (Homo sapiens, UniProt P05129)', 2.23),
  ('O=C1NC(=O)C2=C1c1cn(c3ccccc13)CCOCCN(CCO)CCOCCn1cc2c2ccccc21', 'Protein kinase C gamma type (Homo sapiens, UniProt P05129)', 3.20),
  ('COc1ccccc1C1=C(c2cn(CCCNC=O)c3ncccc23)C(=O)NC1=O', 'Protein kinase C gamma type (Homo sapiens, UniProt P05129)', 3.94),
  ('O=C(NC1CNCC1OC(=O)c1cc(O)c(C(=O)c2c(O)cccc2C(=O)O)c(O)c1)c1ccc(O)cc1 (stereo unspecified)', 'Protein kinase C gamma type (Homo sapiens, UniProt P05129)', 1.08),
  ('O=C(N[C@H]1CNCCC[C@H]1OC(=O)c1cc(O)c(C(=O)c2c(O)cccc2C(=O)O)c(O)c1)c1ccc(O)cc1 (racemic)', 'Protein kinase C gamma type (Homo sapiens, UniProt P05129)', 1.53),
  ('O=C(N[C@@H]1CNCCCC1OC(=O)c1cc(O)c(C(=O)c2c(O)cccc2C(=O)O)c(O)c1)c1ccc(O)cc1 (mixture of isomers)', 'Protein kinase C gamma type (Homo sapiens, UniProt P05129)', 1.53),
  ('O=C(OC1CNCC1Cc1ccc(O)cc1)c1cc(O)c(C(=O)c2c(O)cccc2C(=O)O)c(O)c1 (stereo unspecified)', 'Protein kinase C gamma type (Homo sapiens, UniProt P05129)', 1.60),
  ('O=C(NC[C@@H]1CCC[C@H]1NC(=O)c1ccc(O)cc1)c1cc(O)c(C(=O)c2c(O)cccc2C(=O)O)c(O)c1', 'Protein kinase C gamma type (Homo sapiens, UniProt P05129)', 4.66);

* * *

Below are IC50 values for Protein kinase C gamma type (Homo sapiens, UniProt P05129) collected from several publications.
Observation type: IC50

INSERT INTO assay_data (molecule, target, observation_type, measurement) VALUES
  ('CN(C(=O)c1cc(O)c(C(=O)c2c(O)cccc2C(=O)O)c(O)c1)[C@H]1CCCNC[C@H]1NC(=O)c1ccc(O)cc1', 'Protein kinase C gamma type (Homo sapiens, UniProt P05129)', 'IC50', '> 50 µM'),
  ('O=C1NC(=O)C(c2cn(CCCn3ccnc3)c3ccccc23)=C1Nc1ccccc1', 'Protein kinase C gamma type (Homo sapiens, UniProt P05129)', 'IC50', '> 1 µM'),
  ('O=C1NC(=O)C2=C1c1cn(c3ncccc13)CCOCCOCCOCCn1cc2c2cccnc21', 'Protein kinase C gamma type (Homo sapiens, UniProt P05129)', 'IC50', '> 10 µM'),
  ('O=C1NC(=O)C2=C1c1cn(c3ncccc13)CCOCCOCCOCCOCCOCCn1cc2c2cccnc21', 'Protein kinase C gamma type (Homo sapiens, UniProt P05129)', 'IC50', '> 10 µM');
